Test: NCI Yeast Anticancer Drug Screen. Data for the cln2 rad14 strain (AID 165);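 further: 0% = growth equal to vehicle treated cultures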
Settings: S. cerevisiae cln2 rad14 strain, at 5.0 µM (retest, dose inferred, filed as 0.5)
About 79,000 compounds went through this panel and 15% of them were active in at least one assay; those are over-represented in the sample as a whole. Activity calls are given as the source filed them. No stated cut-off is given here; in the data, active means growth inhibition above about 70%; inactive means the rest.
Outcome codes: 1 (yes) = active, 0 (no) = inactive

Compound	Assigned Class
O=S(c1ccccc1)c1c(Cl)c(Cl)nc(Cl)c1Cl (stereo unspecified)	1 (yes)
O=[N+]([O-])c1cc(NC(=S)SCc2ccccc2)ccc1Cl	0 (no)
COC(=O)C(=O)C(/C=N/C(=S)NCCc1ccc(OC)c(OC)c1)=C(/O)c1ccc([N+](=O)[O-])cc1	0 (no)
CCCCCCCCCCCCCCCCCc1nnc(N)o1	0 (no)
CC(=O)Oc1cc(Cl)ccc1Cc1ccc(Cl)cc1OC(C)=O	0 (no)
Cn1c2ccccc2c2cc3cnccc3cc21	0 (no)

###

Assay: NCI Yeast Anticancer Drug Screen. Data for the mlh1 rad18 strain (AID 175)
Settings: S. cerevisiae mlh1 rad18 strain growth inhibition; at 5.0 µM (retest, dose inferred, filed as 0.5); active compounds read high
The panel holds about 79,000 compounds, 15% with a hit somewhere; the sample as a whole holds those more often.
growth inhibition listing for selected molecules.

Molecule	Unit Descriptor	growth inhibition
CCOC(=O)C(=N\Nc1c(C)cccc1C)/C(C)=N\NC(N)=S	%	11
S=C(C(=S)N1CCOCC1)N1CCOCC1	%	16
O=C(CCCl)Nc1ccc(CCC(=O)c2ccccc2NC(=O)CCCl)cc1	%	-11
Cn1c(=O)c2c(nc([N+](=O)[O-])n2C)n(C)c1=O	%	0
O=S1(=O)C(C(O)(c2ccccc2)c2ccccc2)CCCN1c1ccccc1 (stereo unspecified)	%	-2
Cc1cc(Cc2ccccc2Cl)ccc1O	%	-4

###

Assay: NCI Yeast Anticancer Drug Screen. Data for the rad50 strain (AID 155);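 further: 0% = growth of vehicle-only cultures of the same strain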
Conditions: S. cerevisiae rad50 strain growth inhibition; at 5.0 µM (retest, dose inferred, filed as 0.5)
The panel holds about 79,000 compounds, 15% with a hit somewhere; the sample as a whole holds those more often. Activity calls are given as the source filed them. No stated cut-off is given here; in the data, active means growth inhibition above about 70%; inactive means the rest.
Outcome codes: 1 (yes) for active, 0 (no) for inactive

Molecule	Assigned Class
Cc1ccc(S(=O)(=O)Nc2ccccc2C=O)cc1	0 (no)
Cc1ccccc1Nc1nc(-c2ccccc2)nc(N)c1N=O	0 (no)
OCC1(O)OCC(O)C(O)C1O (configuration not stated)	0 (no)
CC(/C=N/NS(=O)(=O)c1ccc(C)cc1)=C(c1ccccc1)c1ccccc1	0 (no)
O=[N+]([O-])c1ccc(Sc2ccc([N+](=O)[O-])o2)cc1	1 (yes)
COc1ccc(CSC2=C(C#N)C(=O)NC3(CCCCC3)S2)cc1	0 (no)
CCOc1ccc2nc([NH-])sc2c1.CCOc1ccc2nc([NH-])sc2c1.[Cl][Pt+2][Cl]	0 (no)
CCOC(=O)C(=Cc1ccc(C(=O)OC)cc1)C(=O)OCC	0 (no)
CC/S(=N\S(=O)(=O)c1ccc(C)cc1)c1cccc[n+]1[O-] (configuration not stated)	1 (yes)
CCOC(=O)C1=C(C)NC(C)=C(C(=O)OCC)C1c1ccnc2ccccc12	0 (no)
O=C(O)/C(=C\c1ccc(Cl)cc1)c1ccc(C(F)(F)F)cc1[N+](=O)[O-]	0 (no)
COc1cc(C(Sc2ccccc2C(=O)O)Sc2ccccc2C(=O)O)ccc1O	0 (no)
CC1=CC(c2c(O)cc(O)c(C(=O)CCc3ccccc3)c2O)C(C(C)C)CC1 (configuration not stated)	0 (no)
Clc1c2ccccc2cc2cccnc12	0 (no)
CCCCP(CCCC)(CCCC)=C(C(=O)OC)C(C(=O)OC)=C1SC(C(=O)OC)=C(C(=O)OC)S1	0 (no)
CC(C)Cn1cnc2c(SCc3cccc(F)c3)nc(N)nc21	0 (no)
CN(C)c1nc(=NCc2ccco2)ss1	0 (no)
Oc1ccc2oc3ccccc3c2c1	0 (no)
[O-][n+]1c2c(cc3ccccc31)Cc1ccccc1-2	0 (no)
Cc1ccc(S(=O)(=O)OCC2OC(c3ccccc3)OC3C(CO)OC(c4ccccc4)OC23)cc1 (configuration not stated)	0 (no)
CC1(C)CCC2(C(=O)O)CCC3(C)C(=CCC4C5(C)CC(O)C(O)C(C)(C(=O)O)C5CCC43C)C2C1 (configuration not stated)	1 (yes)
CCOC(=O)C(NNc1ccccc1)C(c1ccccc1)[P+](c1ccccc1)(c1ccccc1)c1ccccc1 (configuration not stated)	1 (yes)

###

# maps each entry to its growth inhibition
Test: NCI Yeast Anticancer Drug Screen. Data for the mlh1 rad18 strain (AID 175)
Conditions: S. cerevisiae mlh1 rad18 strain growth inhibition; at 50.0 µM (retest, dose inferred, filed as 5.0); active compounds read high
The panel holds about 79,000 compounds, 15% with a hit somewhere; the sample as a whole holds those more often.

Compound	growth inhibition, %
N#CC1C(=O)NC(=O)C(C#N)C1c1c(Cl)cccc1Cl (configuration not stated)	93
O=C(c1ccccc1)c1ccc2cccc(O)c2n1	77
C1CCC(CCNCCC2CCCCC2)CC1	99
CC(C)Nc1nc(NC(C)C)c2cnn(-c3ccccc3)c2n1	74
Fc1ccc(CSC(=S)Nc2cccc(C(F)(F)F)c2)cc1	99
CC1=CCCc2c1cc1ccc3cccc4ccc2c1c34	-6
CC12CCC(O)CC1=CCC1C2CCC2(C)c3nc(C#N)c(=N)n(O)c3CC12 (configuration not stated)	85
Oc1ccc2oc3ccccc3c2c1	94
N#CSCCl	87
Cc1ccc(S(=O)(=O)S/C(=N\c2ccccn2)Nc2ccccn2)cc1	29
N#CC(=C1C=CC(=NOC(=O)Nc2ccccc2)C=C1)c1ccccc1	98
COc1ccc(-c2c(C(=O)O)[nH]c3ccccc23)cc1	97

###

Each entry below carries its reported growth inhibition.
Assay: NCI Yeast Anticancer Drug Screen. Data for the rad50 strain (AID 155);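 further: 0% = growth of vehicle-only cultures of the same strain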
Settings: S. cerevisiae rad50 strain growth inhibition; at 5.0 µM (retest, dose inferred, filed as 0.5); active compounds read high
The panel holds about 79,000 compounds, 15% with a hit somewhere; the sample as a whole holds those more often.

Compound	growth inhibition / %
S=c1ncc2c([nH]1)C1c3ccccc3C2c2ccccc21	-9
CC(CCC(=O)O)(c1cc(Br)c(O)c(Br)c1)c1cc(Br)c(O)c(Br)c1	19
Clc1ccc(-c2csc(NCC3CCCO3)n2)cc1 (configuration not stated)	46
COC(=O)n1c(C[P+](c2ccccc2)(c2ccccc2)c2ccccc2)cc2ccccc21	89
O=C(CBr)Nc1ccc(Cc2ccc(NC(=O)CBr)cc2)cc1	11
Cc1ccccc1C(CC(=O)O)C(C)c1ccccc1 (configuration not stated)	14
COC(=O)C1C(c2ccccc2)=N[C@@H](c2ccccc2)[C@H]1C(=O)OC (some centres not stated)	2
C=CCOc1cc(NC(=S)c2sccc2C)ccc1Cl	3
Nc1ccc(N=Nc2ccccc2)c2ccccc12	9
CC1(c2ccccc2)OC1C(=O)N(c1ccccc1)c1ccccc1 (configuration not stated)	14
CC(C)c1cccc(O)c1O	7
O=Nc1c2n[nH]c1CCCCCCCCC2	24

###

Assay: NCI Yeast Anticancer Drug Screen. Data for the sgs1 mgt1 strain (AID 161);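 further: 0% = growth of cultures given vehicle only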
Settings: S. cerevisiae sgs1 mgt1 strain, at 50.0 µM (retest, dose inferred, filed as 5.0), active compounds read high
This is part of a sample that, as a whole, favours compounds with a hit. Of some 79,000 tested, about 15% had one in any assay.

Compound	growth inhibition (%)
Cc1cc(NCCCCCCCNc2cc(C)nc3cc(N)ccc23)c2ccc(N)cc2n1	78
O=[N+]([O-])c1ccc(/C=C/[n+]2ccc3ccccc3c2)o1	98
OCCN(CCO)c1cc(/C=C/c2ccnc3ccccc23)nc2ccccc12	47
CC(=O)c1c(-c2ccco2)c(C#N)c(=S)n(C2OC(CO)C(O)C(O)C2O)c1-c1ccccc1 (stereo unspecified)	44
[C-]#[N+]C(C)(c1ccccc1)c1ccccc1	79
c1ccc(OCCCOc2ccccc2)cc1	3

###

Assay: NCI Yeast Anticancer Drug Screen. Data for the cln2 rad14 strain (AID 165);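 further: 0% = growth equal to vehicle treated cultures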
Details: S. cerevisiae cln2 rad14 strain, at 5.0 µM (retest, dose inferred, filed as 0.5), active compounds read high
About 79,000 compounds went through this panel and 15% of them were active in at least one assay; those are over-represented in the sample as a whole.
# growth inhibition values compiled below

Compound	growth inhibition [%]
O=[N+]([O-])c1ccc(Sc2ccsc2)c([N+](=O)[O-])c1	4
CN(C)C(=S)/N=c1\ssc(=S)n1Cc1ccco1	-7
O=C(Nc1cc(Cl)ccc1Cl)Nc1ccc(Cl)cc1C(=O)c1ccccc1	73
CC(C)(COC(=O)Nc1cccc(Cl)c1)[N+](=O)[O-]	-41
CC12CCC3C(CCC4CC(O)CCC43C)C1CC=CO2 (stereo not given)	0
NNc1cccc(C(F)(F)F)c1	13
Cc1ccc(S(=O)(=O)N/N=c2\c(C)c(C3=NS(=O)(=O)c4cc(S(N)(=O)=O)c(Cl)cc4N3)oc3c(Cl)cc(Cl)cc23)cc1	33
NCCC(N)P(=O)(O)O (stereo not given)	-61
Cc1nc(Nc2ccc(Cl)cc2)sc1C(=O)NNC(=S)NN	8
CC(=O)Oc1ccc(C23CC4CC(CC(C4)C2)C3)cc1	-36
C#CC(CC(C)CC(C)(C)C)NC (stereo not given)	7
COc1ccc(/C(Cl)=C(\C=O)c2ccc(Cl)c(Cl)c2)cc1	-10
CC1(C)CCC(C)(C)c2cc(C(=O)Nc3ccc(C(=O)O)cc3)ccc21	36
[Pt].c1ccc(P(CCP(CCP(c2ccccc2)c2ccccc2)CCP(c2ccccc2)c2ccccc2)c2ccccc2)cc1	6
C=CCOC(=O)N(C(=O)OCC=C)C(Cc1ccc(O)cc1)C(=O)NNc1ccccc1 (stereo not given)	5
Cc1cc2c(C(C)C)c(O)c(O)c(C=Nc3ccc(C(=O)O)cc3)c2c(O)c1-c1c(C)cc2c(C(C)C)c(O)c(O)c(C=Nc3ccc(C(=O)O)cc3)c2c1O	-3
O=C(O)C(c1ccccc1)c1ccc(-c2ccccc2)cc1 (stereo not given)	-7
Cc1ccc2c(c1)C(O)(c1ccccc1)CCS2 (stereo not given)	16
CCOC(=O)CC1=NC(=Nc2ccc(Cl)c(Cl)c2)SC1	-5
CCN1C(/C=C/c2ccc(O)c3ncccc23)CCC2CC(C)CCC21 (stereo not given)	10
CCN(CC)CC(O)c1ccc2cc(Cl)c3ccccc3c2c1 (stereo not given)	8
CCOC(=O)c1cnn(-c2ccccc2)c1N	15
Nc1nc(=Nc2ccccc2)ss1	-7
O=[N+]([O-])/C(C=Nc1ccccc1)=C/Nc1ccccc1	-6
Oc1ccc(C(O)(c2ccccc2)c2ccccc2)c2ccccc12	28
CCCCCCCCCCCC(=O)NCCc1ccc(O)c(O)c1	-3
Cc1cc(=Nc2ccc3c(c2)c(N)cc(C)[n+]3C)nc(N)n1C	83
CC(O)(c1ccccc1)c1ccccc1S(=O)(=O)Nc1ccccc1 (stereo not given)	12
COc1cccc2c1C(=O)c1c(O)c3c(c(O)c1C2=O)CC(O)(C(C)=O)CC3OC1CC(NCC2(O)OCC(O)C(O)C2O)C(O)C(C)O1 (stereo not given)	38
c1ccc(C2CC(c3ccc4ccccc4c3)=Nc3ccccc3S2)cc1 (stereo not given)	-11
COc1ccc2ccccc2c1/C=C/C(=O)c1ccccc1	-19
C[n+]1c(-c2ccc(/C=N/NC(=O)c3ccc(C(=O)N/N=C/c4ccc(-c5cn6ccccc6[n+]5C)cc4)nc3)cc2)cn2ccccc21	34
O=c1cc(N=Nc2ccc(Cl)c(Cl)c2)[nH]c(=O)[nH]1	32
Cc1ccc(S(=O)(=O)N2CCN(C)CC2)cc1	1
CCCC[NH-].CCCC[NH-].[I][Pt+2][I]	53
Cn1cc(CCC(=O)C2C=CC=CC2=NC(=O)CCCl)c2ccccc21 (stereo not given)	14
C/C(=N\NC(=S)Nc1ccc(C)cc1)c1nc2ncccc2[nH]1	-36
N#Cc1cccc(C[P+](c2ccccc2)(c2ccccc2)c2ccccc2)c1	8
CC1(C)OC2C(CO)OC(n3ncc(=S)[nH]c3=O)C2O1 (stereo not given)	-1
Oc1ccc(-c2ccc3ccccc3c2)cc1	3
CCCCOC(=O)C(C)OC(=O)NNc1ccccc1 (stereo not given)	7
CC(C)Cc1cc2c(cc1O)CCC1C2CC[C@@]2(C)C1CC[C@@H]2O (stereo not given in full)	-22
O=C(OC1C2CCC2C2CC21)c1cc([N+](=O)[O-])cc([N+](=O)[O-])c1 (stereo not given)	3
O=C(Nc1ccc(Cl)cc1Cl)C1C(=O)OC2(CCCCC2)OC1=O	37
COc1cccc(/C=C2\CCC(CN(C)C)C2=O)c1 (stereo not given)	28

FYI, the data here is from PubChem BioAssay (NCI).
